Known pIC50 of a selection of molecules
MEASUREMENT TARGET: UniProt:Q9H2K2
Sequence (Q9H2K2 whole entry): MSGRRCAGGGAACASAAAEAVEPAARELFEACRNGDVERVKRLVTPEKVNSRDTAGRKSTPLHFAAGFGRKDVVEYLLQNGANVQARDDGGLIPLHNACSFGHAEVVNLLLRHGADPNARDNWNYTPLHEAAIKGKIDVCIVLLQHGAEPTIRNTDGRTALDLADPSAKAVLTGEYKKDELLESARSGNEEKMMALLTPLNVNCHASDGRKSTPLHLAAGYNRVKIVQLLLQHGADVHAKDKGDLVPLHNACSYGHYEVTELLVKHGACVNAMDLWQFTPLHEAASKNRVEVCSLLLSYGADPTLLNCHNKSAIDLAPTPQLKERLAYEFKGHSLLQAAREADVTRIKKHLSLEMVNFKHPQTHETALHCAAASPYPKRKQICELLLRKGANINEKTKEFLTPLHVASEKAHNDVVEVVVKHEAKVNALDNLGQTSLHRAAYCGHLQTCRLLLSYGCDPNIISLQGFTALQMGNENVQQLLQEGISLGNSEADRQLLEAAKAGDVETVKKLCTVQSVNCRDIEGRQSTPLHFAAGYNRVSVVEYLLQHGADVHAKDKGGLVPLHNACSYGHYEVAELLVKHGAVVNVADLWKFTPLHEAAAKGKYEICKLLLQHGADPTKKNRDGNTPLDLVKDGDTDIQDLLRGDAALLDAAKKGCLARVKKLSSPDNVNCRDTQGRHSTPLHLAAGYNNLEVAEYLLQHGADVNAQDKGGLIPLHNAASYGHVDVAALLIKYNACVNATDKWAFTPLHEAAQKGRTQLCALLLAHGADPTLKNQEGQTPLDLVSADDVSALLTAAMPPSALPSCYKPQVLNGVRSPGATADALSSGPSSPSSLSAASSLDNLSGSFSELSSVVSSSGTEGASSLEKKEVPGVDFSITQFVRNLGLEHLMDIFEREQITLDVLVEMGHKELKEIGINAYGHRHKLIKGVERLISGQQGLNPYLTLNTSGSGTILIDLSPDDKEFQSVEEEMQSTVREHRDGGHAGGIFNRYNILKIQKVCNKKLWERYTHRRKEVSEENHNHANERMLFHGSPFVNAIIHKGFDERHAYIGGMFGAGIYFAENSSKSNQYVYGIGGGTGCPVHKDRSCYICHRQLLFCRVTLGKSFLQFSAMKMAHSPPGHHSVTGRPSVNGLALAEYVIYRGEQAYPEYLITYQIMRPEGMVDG
EXPERIMENT DESCRIPTION: biochemical
Description: Inhibition of GST tagged-TEV cleavage site-fused human recombinant TNKS2 (873 to 1166 residues) expressed in baculovirus infected sf9 cells assessed as reduction in auto-PARsylation incubated for 60 mins in presence of bio-NAD as co-substrate by ELISA
pIC50: −log10 of the molar value.
PROPERTY LABEL: pIC50

COMPOUND: CC(C)(O)c1ccc(-c2nc3ccccc3c(=O)[nH]2)cc1
OBSERVED RESULT: 7.89
//
COMPOUND: CC(C)(C)c1ccc(-c2nc3ccccc3c(=O)[nH]2)cc1
OBSERVED RESULT: 8.06
//
COMPOUND: Cc1cc(F)cc2c(=O)[nH]c(-c3ccc(C4CCN(C)CC4)cc3)nc12
OBSERVED RESULT: 8.66
//
COMPOUND: CN1CCC(c2ccc(-c3nc4c(F)cc(F)cc4c(=O)[nH]3)cc2)CC1.O=C(O)C(F)(F)F
OBSERVED RESULT: 7.51

---

EXPERIMENT DESCRIPTION: Half-life in mouse
Format: ADME, organism-based
CONDITION NOTES: in vivo
PROPERTY LABEL: half-life (h)

COMPOUND: CC(C)(O)c1ccc(-c2nc3c(F)cc(F)cc3c(=O)[nH]2)cc1
U: h
OBSERVED RESULT: 1.4

---

Known microsomal CLint of a selection of compounds
EXPERIMENT DESCRIPTION: Intrinsic clearance in mouse liver microsomes assessed per mg protein in presence of NADPH by UPLC analysis
Assay type: ADME, Microsome
CONDITION NOTES: read-out: CLH

COMPOUND: CC(C)(O)c1ccc(-c2nc3cccc(F)c3c(=O)[nH]2)cc1
INEQUALITY SYMBOL: =
microsomal CLint [µL/min/mg]: 11

COMPOUND: Cc1cc(F)cc2c(=O)[nH]c(-c3ccc(C(C)(C)O)cc3)nc12
INEQUALITY SYMBOL: =
microsomal CLint [µL/min/mg]: 180

COMPOUND: CN1CCC(c2ccc(-c3nc4c(F)cc(F)cc4c(=O)[nH]3)cc2)CC1.O=C(O)C(F)(F)F
INEQUALITY SYMBOL: =
microsomal CLint [µL/min/mg]: 39

COMPOUND: CC(C)(O)c1ccc(-c2nc3ccc(F)cc3c(=O)[nH]2)cc1
INEQUALITY SYMBOL: =
microsomal CLint [µL/min/mg]: 25

COMPOUND: CC(C)(O)c1ccc(-c2nc3ccccc3c(=O)[nH]2)cc1
INEQUALITY SYMBOL: =
microsomal CLint [µL/min/mg]: 46

COMPOUND: Cc1cc(F)cc2c(=O)[nH]c(-c3ccc(C4CCNCC4)cc3)nc12.Cl
INEQUALITY SYMBOL: =
microsomal CLint [µL/min/mg]: 77

COMPOUND: CC(C)(OCCO)c1ccc(-c2nc3ccc(F)cc3c(=O)[nH]2)cc1
INEQUALITY SYMBOL: =
microsomal CLint [µL/min/mg]: 32

COMPOUND: Cc1cc(F)cc2c(=O)[nH]c(-c3ccc(C(C)(C)OCCO)cc3)nc12
INEQUALITY SYMBOL: =
microsomal CLint [µL/min/mg]: 180

COMPOUND: Cc1cc(F)cc2c(=O)[nH]c(-c3ccc(C4CCN(C)CC4)cc3)nc12
INEQUALITY SYMBOL: =
microsomal CLint [µL/min/mg]: 422

COMPOUND: CC(C)(O)c1ccc(-c2nc3c(F)cc(F)cc3c(=O)[nH]2)cc1
INEQUALITY SYMBOL: =
microsomal CLint [µL/min/mg]: 22

COMPOUND: Cl.O=c1[nH]c(-c2ccc(C3CCNCC3)cc2)nc2c(F)cc(F)cc12
INEQUALITY SYMBOL: <
microsomal CLint [µL/min/mg]: 10

COMPOUND: O=c1[nH]c(-c2ccc3c(c2)OCO3)nc2ccccc12
INEQUALITY SYMBOL: =
microsomal CLint [µL/min/mg]: 346

COMPOUND: CC(C)(O)c1ccc(-c2nc3ccc(F)cc3c(=O)[nH]2)nc1
INEQUALITY SYMBOL: <
microsomal CLint [µL/min/mg]: 10

COMPOUND: COc1cccc2c(=O)[nH]c(-c3ccc(C(C)(C)O)cc3)nc12
INEQUALITY SYMBOL: =
microsomal CLint [µL/min/mg]: 45

---

MEASUREMENT TARGET: Tankyrase 1/2 (Homo sapiens, UniProt Q9H2K2+O95271)

COMPOUND: CC(C)(C)c1ccc(-c2nc3ccccc3c(=O)[nH]2)cc1
U: µM
INEQUALITY SYMBOL: =
EC50: 1.5

COMPOUND: Cc1cc(F)cc2c(=O)[nH]c(-c3ccc(C4CCN(C)CC4)cc3)nc12
U: µM
INEQUALITY SYMBOL: =
EC50: 0.05

COMPOUND: CN1CCC(c2ccc(-c3nc4c(F)cc(F)cc4c(=O)[nH]3)cc2)CC1.O=C(O)C(F)(F)F
U: µM
INEQUALITY SYMBOL: =
EC50: 3.9

COMPOUND: CC(C)(O)c1ccc(-c2nc3ccccc3c(=O)[nH]2)cc1
U: µM
INEQUALITY SYMBOL: =
EC50: 1.3

COMPOUND: O=c1[nH]c(-c2ccc3c(c2)OCO3)nc2ccccc12
U: µM
INEQUALITY SYMBOL: >
EC50: 30

---

EXPERIMENT DESCRIPTION: Intrinsic clearance in human liver microsomes assessed per mg protein in presence of NADPH by UPLC analysis
Assay type: ADME, Microsome
CONDITION NOTES: read-out: CLH

COMPOUND: CC(C)(O)c1ccc(-c2nc3ccc(F)cc3c(=O)[nH]2)cc1
microsomal CLint: < 10 µL/min/mg
//
COMPOUND: Cc1cc(F)cc2c(=O)[nH]c(-c3ccc(C4CCN(C)CC4)cc3)nc12
microsomal CLint: < 10 µL/min/mg
//
COMPOUND: Cc1cc(F)cc2c(=O)[nH]c(-c3ccc(C4CCNCC4)cc3)nc12.Cl
microsomal CLint: < 10 µL/min/mg

---

EXPERIMENT DESCRIPTION: Intrinsic clearance in mouse liver microsomes assessed per mg protein in presence of NADPH by UPLC analysis
Format: ADME, Microsome
CONDITION NOTES: read-out: CLH
Known microsomal CLint of a selection of molecules

COMPOUND: CC(C)(O)c1ccc(-c2nc3c(F)ccc(F)c3c(=O)[nH]2)cc1
INEQUALITY SYMBOL: <
microsomal CLint / µL/min/mg: 10
//
COMPOUND: Cc1cc(F)cc2c(=O)[nH]c(-c3ccc(N4CCN(C)CC4)cc3)nc12
INEQUALITY SYMBOL: =
microsomal CLint / µL/min/mg: 138
//
COMPOUND: CC(C)(O)c1ccc(-c2nc3ccc(F)c(F)c3c(=O)[nH]2)cc1
INEQUALITY SYMBOL: =
microsomal CLint / µL/min/mg: 23
//
COMPOUND: Cc1cccc2c(=O)[nH]c(-c3ccc(C(C)(C)O)cc3)nc12
INEQUALITY SYMBOL: =
microsomal CLint / µL/min/mg: 81
//
COMPOUND: COc1ccc(-c2nc3ccccc3c(=O)[nH]2)cc1
INEQUALITY SYMBOL: =
microsomal CLint / µL/min/mg: 630
//
COMPOUND: CC(C)(C)c1ccc(-c2nc3ccc(F)cc3c(=O)[nH]2)cc1
INEQUALITY SYMBOL: >
microsomal CLint / µL/min/mg: 1000
//
COMPOUND: CC(C)(O)c1ccc(-c2nc3c(Cl)cccc3c(=O)[nH]2)cc1
INEQUALITY SYMBOL: =
microsomal CLint / µL/min/mg: 49
//
COMPOUND: CC(C)(C)c1ccc(-c2nc3ccccc3c(=O)[nH]2)cc1
INEQUALITY SYMBOL: <
microsomal CLint / µL/min/mg: 10
//
COMPOUND: CN1CCN(c2ccc(-c3nc4ccc(F)cc4c(=O)[nH]3)cc2)CC1
INEQUALITY SYMBOL: =
microsomal CLint / µL/min/mg: 44
//
COMPOUND: COCCOC(C)(C)c1ccc(-c2nc3ccc(F)cc3c(=O)[nH]2)cc1
INEQUALITY SYMBOL: =
microsomal CLint / µL/min/mg: 126
//
COMPOUND: CC(C)(O)c1ccc(-c2nc3c(F)cccc3c(=O)[nH]2)cc1
INEQUALITY SYMBOL: =
microsomal CLint / µL/min/mg: 26

---

MEASUREMENT TARGET: Protein mono-ADP-ribosyltransferase TIPARP (Homo sapiens)
Sequence (Q7Z3E1 whole entry): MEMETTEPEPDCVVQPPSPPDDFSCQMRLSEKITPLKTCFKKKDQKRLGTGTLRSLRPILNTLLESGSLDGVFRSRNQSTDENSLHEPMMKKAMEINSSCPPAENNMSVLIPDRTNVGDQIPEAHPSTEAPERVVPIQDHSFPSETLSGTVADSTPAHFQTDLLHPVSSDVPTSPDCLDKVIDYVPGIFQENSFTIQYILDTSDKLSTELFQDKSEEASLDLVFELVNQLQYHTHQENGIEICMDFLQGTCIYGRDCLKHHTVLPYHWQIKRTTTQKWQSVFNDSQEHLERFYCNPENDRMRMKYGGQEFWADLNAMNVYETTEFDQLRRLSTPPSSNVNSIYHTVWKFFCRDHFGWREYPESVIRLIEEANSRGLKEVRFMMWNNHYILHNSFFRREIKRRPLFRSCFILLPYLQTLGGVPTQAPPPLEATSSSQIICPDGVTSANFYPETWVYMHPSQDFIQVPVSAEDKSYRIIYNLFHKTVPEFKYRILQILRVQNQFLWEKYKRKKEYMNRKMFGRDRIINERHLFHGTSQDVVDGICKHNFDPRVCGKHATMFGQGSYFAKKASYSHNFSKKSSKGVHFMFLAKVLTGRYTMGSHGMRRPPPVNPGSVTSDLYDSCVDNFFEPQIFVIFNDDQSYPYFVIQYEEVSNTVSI
EXPERIMENT DESCRIPTION: Inhibition of N-terminal FLAG-tagged recombinant human PARP7 (400 to 657 residues) expressed in Baculovirus infected Sf9 cells using biotinylated substrate after 1 hr by chemiluminescence method
pIC50: −log10 of the molar value.
PROPERTY LABEL: pIC50

COMPOUND: CC(C)(O)c1ccc(-c2nc3c(F)cc(F)cc3c(=O)[nH]2)cc1
OBSERVED RESULT: < 5.00
